Target or system: NS1A(1-73), NS1 protein N-terminal dsRNA-binding domain (Influenza A virus (A/Udorn/72)?, UniProt B4URE2 SEQ:1-73)
Sequence (B4URE2 1-73): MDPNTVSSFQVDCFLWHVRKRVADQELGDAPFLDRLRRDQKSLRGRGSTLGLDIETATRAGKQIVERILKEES
Reported endpoint: Kd (nM)
Give the value, in units of nM, as a plain number.

Sample 16-bp dsRNA (RR) (dsRNA) RNA 1: CCAUCCUCUACAGGCG RNA 2: CGCCUGUAGAGGAUGG — what was its Kd? 748
